Each item that follows carries a reported Cell Viability.
# Tested on: Colon cancer organoid
# experiment-notes: Optimized Dual-Glo assay to identify co-culture induced drug vulnerabilities using donated chemical probes and chemogenomics kinase set in O14 CRC organoid and F14 CAF mono and co-culture. […] Cell viability is reported both mono and co-culture models.
# Format: functional, Homo sapiens
# Design: dose or concentration left out as unconfirmed
# condition-info: Culture type Mono-Culture; Transduced with Renilla-dsRed lentivirus

| structure-smiles-string | Cell Viability / % |
| --- | --- |
| O=C(NC[C@@H]1[C@H]2CN(C(=O)OCc3cc(C(F)(F)F)cc(C(F)(F)F)c3)C[C@@H]12)c1ccc2[nH]nnc2c1 | 80.7794 |
| CC(=O)c1cc(-c2cc(C(=O)NC3CC3)ccc2C)c2ncccn12 | 109.242 |
| Cn1cncc1[C@@](O)(COc1ccc(C#N)cc1-c1ccc(OC(F)(F)F)cc1)c1ccc(C#N)cc1 | 97.2035 |
| Cc1ccc2nc(CNCCCOc3ccccc3)cc(O)c2c1 | 107.391 |
| COc1ccc(Cn2ccc3ccc(C(=O)NO)cc32)cc1 | 102.466 |
| CCOC(=O)CCNc1cc(N2CCc3ccccc3CC2)nc(-c2ccccn2)n1 | 109.679 |
| COc1cc(-c2cn([C@H]3CCc4ccccc4N(CC(F)(F)F)C3=O)nn2)ccc1-n1ccc(C)n1 | 99.9901 |
| CN1CCN(c2cnc3c(C4CCN(C(=O)c5ccc(OC(F)(F)F)cc5N)CC4)ncnc3c2)CC1 | 104.304 |
| CCOc1cc(N2CCC(O)CC2)ccc1Nc1ncc2c(n1)N(C)c1ccccc1C(=O)N2C | 122.992 |
| CO[C@@H](C)c1c(Nc2ccc([C@H](N(C)C(=O)C3CCS(=O)(=O)CC3)C(F)(F)F)cc2)cnc2cc(Cl)nn12 | 101.932 |
| COc1ccc2c(c1)O[C@@H](c1ccc(OC)c(OC)c1)C[C@H]2NC(=O)C1(c2ccc3c(c2)OC(F)(F)O3)CC1 | 101.637 |
